B1: library; a variant is named by its letters at N, in order (parent)
chain: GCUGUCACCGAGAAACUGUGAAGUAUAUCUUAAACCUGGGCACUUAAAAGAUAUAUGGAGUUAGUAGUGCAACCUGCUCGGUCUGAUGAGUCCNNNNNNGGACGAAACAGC

Variants of: B1
test.method.notes: normalized RNA/DNA level with ligand (relative to sTRSVctl = 100) (log10 (% of sTRSVctl)); HEK293T; ligand: cyclic di-GMP (c-di-GMP-II aptamer); ligand concentration (+) RNA-Seq: 1 mM; higher = less ribozyme self-cleavage, higher mRNA level
experimental.setup: reporter: mCherry (pCS4076), ligand present: yes
For each of the variants below, state its normalized RNA/DNA level with ligand (log10).
One number for each entry.

Illustrative cases are given below, each with its answer.
[
  {
    "mutant.name": "UCGUAC",
    "value.reported": 1.81
  },
  {
    "mutant.name": "GCAGUU",
    "value.reported": 1.65
  },
  {
    "mutant.name": "UCUCCU",
    "value.reported": 1.91
  },
  {
    "mutant.name": "CCGCUC",
    "value.reported": 1.85
  },
  {
    "mutant.name": "CUGCAA",
    "value.reported": 1.59
  }
]

List the reported normalized RNA/DNA level with ligand (log10) of each variant below.
1. UCAUGU
2. GAAAGA
3. UGUUAG
4. CGUGAA

1.82
1.57
1.86
1.35

For the 6 variants below, give their normalized RNA/DNA level with ligand (log10) values.
1. UUUACA
2. UGGCGG
3. AUUCAG
4. ACCGCG
5. CAUUAU
6. AAUAGG

1.85
1.93
1.74
1.87
1.71
1.68
